Target: Prostaglandin G/H synthase 2 (Homo sapiens, UniProt P35354)
Sequence (P35354 whole entry): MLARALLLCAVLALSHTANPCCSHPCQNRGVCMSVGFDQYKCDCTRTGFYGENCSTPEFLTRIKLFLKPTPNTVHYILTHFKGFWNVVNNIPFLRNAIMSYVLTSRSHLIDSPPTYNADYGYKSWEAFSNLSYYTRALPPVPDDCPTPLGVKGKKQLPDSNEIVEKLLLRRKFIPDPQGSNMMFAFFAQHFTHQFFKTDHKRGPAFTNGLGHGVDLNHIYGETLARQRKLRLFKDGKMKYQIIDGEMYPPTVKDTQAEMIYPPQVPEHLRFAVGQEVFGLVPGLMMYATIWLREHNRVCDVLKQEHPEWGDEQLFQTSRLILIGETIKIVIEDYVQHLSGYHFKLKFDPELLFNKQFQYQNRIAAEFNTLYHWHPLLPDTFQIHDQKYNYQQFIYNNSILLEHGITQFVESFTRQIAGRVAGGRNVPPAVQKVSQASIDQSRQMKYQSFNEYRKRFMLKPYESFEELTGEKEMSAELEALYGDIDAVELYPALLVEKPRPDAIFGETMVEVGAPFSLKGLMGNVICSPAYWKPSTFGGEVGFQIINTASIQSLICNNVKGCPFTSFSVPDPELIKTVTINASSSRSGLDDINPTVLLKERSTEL
Lab note - cut at 70 µM for IC50: Yes if strictly below, No if not.

>  <compound>
O=C1c2c(O)cc(O)cc2O[C@H](c2ccc(O)cc2O)[C@H]1O [DIHYDROMORIN]

>  <class name>
No

$$$$
>  <compound>
Oc1cc(O)cc(/C=C/c2ccc(O)cc2O)c1

>  <class name>
No

$$$$
>  <compound>
CC(C)=CCc1cc(/C=C/c2cc(O)cc(O)c2)c(O)cc1O

>  <class name>
Yes

$$$$
>  <compound>
C/C(=C\Cc1c(O)ccc(C(=O)/C=C/c2ccc(O)cc2)c1O)COC(=O)/C=C/c1ccc(O)cc1

>  <class name>
Yes

$$$$
>  <compound>
C/C(=C/Cc1c(O)ccc(C(=O)/C=C/c2ccc(O)cc2)c1O)COC(=O)/C=C/c1ccc(O)cc1

>  <class name>
Yes

$$$$
>  <compound>
CC(C)(O)[C@H](O)Cc1cc(/C=C/c2cc(O)cc(O)c2)ccc1O

>  <class name>
Yes

$$$$
